Test system: IMR-90 lung fibroblast control cell line
Assay: MTT cellular viability assay, IMR90
Assay type: cell-based
Details: IMR90 (fibroblast, non-cancer), 72 hours, ± standard deviation
Method: Cell lines were obtained from American Type Culture Collection (ATCC, Manassas, VA). […] Caco-2 (ATCC: HTB-37) colorectal cancer was grown in EMEM with 20% FBS and 1% penicillin/streptomycin. All cell lines were incubated at 37°C in 5% CO2 with passaging every 4–7 days. […] GraphPad Prism v6 (La Jolla, CA) was used for all statistical analysis. Nuclear fraction platinum uptake as a total percent of combined nuclear and cytosolic uptake was analyzed using a one-way ANOVA (Brown-Forsyth test; p ≤ 0.05). […]
measured-metric: IC50 (µM)
Value expressed in µM; do not type the unit.

Some molecules with known IC50 results, for comparison:
N.N.[Cl][Pt][Cl] [Cisplatin, cisplatin]	0.53
CC[N+]1(CC)CC[NH+]2CC[NH][Pt-2]21[Cl] (stereo not shown) [[Pt(Et2dien)Cl]^+, Pt(N,N-diethyldiethylenetriamine)Cl]	7.13
[Cl][Pt-2]12[NH2+]CC[NH+]1CC[NH2+]2 (stereo not shown) [[Pt(dien)Cl]^+, Pt(diethylenetriamine)Cl]	56

With those in mind, consider the next molecule.
Noted for [NH3+][Pt-2]([NH3+])([Cl])[n+]1ccccc1 (stereo not shown) [Pyriplatin, pyriplatin] : its IC50 reads 16.1
